Origin of the recorded values: patent US20190100594A1

Parameter EC50 (read off the curve): see the listing below.
Target: T1, cyno GITR-CHO (cynomolgus monkey)
T1 construct: expressed on the surface of CHO cells, construct not described; also called cynomolgus GITR expressed on the surface of CHO cells
Test: flow cytometry on cyno GITR-CHO cells

Consider the reported EC50 (read off the curve) for these binders:
- binder: "hzCC04v5.3 (VHH, sheet prints hzCC04, text hzC04; also called hzC04v5.3) VHH: EVQLLESGGGEVQPGGSLRLSCAASGFTFSTHGMDWFRQAPGKDLEWVSAIQSGGSWTSYASSVKGRFTISRDNAKNTLYLEMSSLRAEDTAVYWCQNRVTRGQGTLVTV"
  EC50 (read off the curve): "~2 nM"
- binder: "hzCC04v5.4 (VHH, sheet prints hzCC04, text hzC04; also called hzC04v5.4) VHH: EVQLLESGGGEVQPGGSLRLSCAASGFTFSTHGMDWFRQAPGKDLEWVSAIQSGGSWTSYASSVKGRFTISRDNAKNTLYLQMSSLRPEDTAVYWCQNRVTRGQGTLVTV"
  EC50 (read off the curve): "~1 nM"
- binder: "hzCC04v5.2 (VHH, sheet prints hzCC04, text hzC04; also called hzC04v5.2) VHH: EVQLLESGGGEVQPGGSLRLSCAASGFTFSTHGMDWFRQAPGKDLEWVSAIQSGGSWTSYASSVKGRFTISRDNAKNTLYLQMNNLRAEDTAVYWCQNRVTRGQGTLVTV"
  EC50 (read off the curve): "~1 nM"

Next up:
Challenge: Sample hzCC04v5.1 (VHH, sheet prints hzCC04, text hzC04; also called hzC04v5.1) VHH: EVQLLESGGGEVQPGGSLRLSCAASGFTFSTHGMDWFRQAPGKDLEWVSAIQSGGSWTSYASSVKGRFTISRDNAKNTLYLEMNNLKPEDTAVYWCQNRVTRGQGTLVTV — what was its EC50 (read off the curve)?
Response given: ~2 nM
